# tested.on: UniProt P06746
# Type: biochemical
# condition.summary: WT; A-G: misincorporation of dGTP (analogue) opposite template A; 37 °C
value.kind: pKd
Entry type: numeric. Quantity: pKd, the -log10 of concentration in molar units.

What reported pKd corresponds to Nc1nc2c(ncn2[C@H]2C[C@H](O)[C@@H](COP(=O)(O)OP(=O)(O)OP(=O)(O)O)O2)c(=O)[nH]1 [A-G O, dGTP, reference compound] on UniProt P06746? 3.20
